# System: Hedgehog signalling pathway
# Measurement Description: Gli-reporter NIH3T3 luciferase assay (Hedgehog pathway inhibition)
# Format: cell-based
# Settings: NIH3T3; Gli-reporter NIH-3T3 cells, recombinant mouse sonic hedgehog, 24 hours, luminescence; read-out: Category (Hedgehog pathway inhibition activity, IC50)
pIC50: −log10 of the molar value.
Reported Property: pIC50

- CN(Cc1ccc(F)nc1F)C1CCN(c2nnc(-c3ccnn3C)c3ccccc23)CC1: 6.70 to 8.00
- Cn1nccc1-c1nnc(N2CCC(NC(=O)Nc3ccc(OC(F)F)cc3)CC2)c2ccccc12: > 8.00
- Cn1nccc1-c1nnc(N2CCC(NC(=O)Nc3ccccc3F)CC2)c2ccccc12: > 8.00

(Q) I am curious: what pIC50 value has been reported for CN(Cc1ccc(F)cc1C(F)(F)F)C1CCCN(c2nnc(-c3ccnn3C)c3ccccc23)C1 (stereo not shown) ?
(A) 5.70 to 6.70

Data origin: patent US9579319B2
